molecular target: Human factor Xa (Homo sapiens); assay: Xa Assay; conditions: % inhibition at 30 µM
Sequence (P00742 235-488 limits assumed): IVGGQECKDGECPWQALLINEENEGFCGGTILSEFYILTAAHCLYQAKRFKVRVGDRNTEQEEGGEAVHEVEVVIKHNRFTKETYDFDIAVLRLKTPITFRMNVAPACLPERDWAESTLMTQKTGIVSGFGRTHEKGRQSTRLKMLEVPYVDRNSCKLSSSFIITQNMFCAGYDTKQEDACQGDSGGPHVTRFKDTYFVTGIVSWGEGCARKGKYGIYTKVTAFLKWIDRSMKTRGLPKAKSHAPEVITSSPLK
Sequence (P00742 41-179 limits assumed): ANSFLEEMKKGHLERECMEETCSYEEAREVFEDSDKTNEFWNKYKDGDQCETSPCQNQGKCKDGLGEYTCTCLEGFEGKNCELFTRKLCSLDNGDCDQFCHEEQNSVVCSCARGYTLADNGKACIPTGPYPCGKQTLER
Collected IC50 or % Inhibition Factor Xa (30 µM) values appear next to each entry.

-- ask I have this compound here, N=C(N)c1ccc(CNC(=O)Cn2c(-c3cccc(N)c3)c(Cl)nc(NC3CCC3)c2=O)cc1 [compound 90] , and I need its recorded IC50 or % Inhibition Factor Xa (30 µM).
-- reply 16%@30

-- ask I have this compound here, Cc1ccccc1-c1c(Cl)nc(NCCc2ccccc2)c(=O)n1CC(=O)NCc1ccc(C(=N)N)cc1 [compound 78] , and I need its recorded IC50 or % Inhibition Factor Xa (30 µM).
-- reply 16%@30

-- ask I have this compound here, CC(C)Nc1nc(Cl)c(-c2cccc([N+](=O)[O-])c2)n(CC(=O)NCc2ccc(C#N)cc2)c1=O [Example 59] , and I need its recorded IC50 or % Inhibition Factor Xa (30 µM).
-- reply 2%

-- ask I have this compound here, N=C(N)c1ccc(CNC(=O)Cn2c(-c3cccc4ccccc34)c(Cl)nc(NCCc3ccccc3)c2=O)cc1 [compound 80] , and I need its recorded IC50 or % Inhibition Factor Xa (30 µM).
-- reply 29%@30

-- ask I have this compound here, CN(C)c1cccc(-c2c(Cl)nc(NCCc3ccccc3)c(=O)n2CC(=O)NCc2ccc(C(=N)N)cc2)c1 [Example 103] , and I need its recorded IC50 or % Inhibition Factor Xa (30 µM).
-- reply 11%@30

-- ask I have this compound here, Cc1cccc(-c2c(Cl)nc(NCCc3ccccc3)c(=O)n2CC(=O)NCc2ccc(C(=N)N)cc2)c1 [compound 81] , and I need its recorded IC50 or % Inhibition Factor Xa (30 µM).
-- reply 33%@30

-- ask I have this compound here, Cc1c(N)cccc1-c1cnc(NC(C)C)c(=O)n1CC(=O)NCc1ccc(C(=N)N)cc1 [compound 98] , and I need its recorded IC50 or % Inhibition Factor Xa (30 µM).
-- reply 10%@30
